Reference for the values: ChEMBL document CHEMBL4689842

Reported values of Population Hoechst High Intensity Objects (%) for individual entries
Tested on: U2OS
Assay: Multiplex assay against U2OS
Assay type: toxicity, cell-based
Conditions: human, 48 h, 1 µM, compound concentration 1 uM, replicate 2
Response body: numeric value in %, unit text excluded.

Exam item: Entry under review: COc1cc(N2CCN(C)CC2)ccc1Nc1ncc2c(n1)N(C)c1ccccc1C(=O)N2C . Reported Population Hoechst High Intensity Objects (%)?
Marked response: 3

Exam item: State the recorded Population Hoechst High Intensity Objects (%) for this entry: O=C(Nc1ccc(-c2ccnc(Nc3ccc(N4CCOCC4)cc3)n2)cc1)[C@@H]1CCCN1
Marked response: 5

Exam item: Look up Population Hoechst High Intensity Objects (%): S=C(NCCCc1c[nH]cn1)NCCCN(Cc1ccc(Cl)c(Cl)c1)c1ccc(Br)cn1
Marked response: 13

Exam item: // Population Hoechst High Intensity Objects (%) lookup, key: CCN1CCN(Cc2ccc(Nc3ncc(F)c(-c4cc(F)c5nc(C)n(C(C)C)c5c4)n3)nc2)CC1.CS(=O)(=O)O
Marked response: 8

Exam item: Bench note: what Population Hoechst High Intensity Objects (%) did CNc1cc(Oc2cc(C(=O)Nc3cc(N4CCN(C)CC4)cc(C(F)(F)F)c3)ccc2C)ncn1 show?
Marked response: 4

Exam item: Query (compound): Cc1ccc(C(=O)Nc2cccc(C(F)(F)F)c2)cc1Nc1nc(-c2cccnc2)nc2c1cnn2C ; field requested: Population Hoechst High Intensity Objects (%)
Marked response: 10

Exam item: What value of measured Population Hoechst High Intensity Objects (%) is listed for O=C1NC(=O)C(c2cnc3ccccn23)=C1c1cn2c3c(cc(F)cc13)CN(C(=O)N1CCCCC1)CC2 [LY-2090314] ?
Marked response: 7

Exam item: I'd like to know its Population Hoechst High Intensity Objects (%). The compound in question is Cl.O=c1c2cccn2c2ccccc2n1CCCN1CCC(c2ccc(Cl)cc2)CC1
Marked response: 5

Exam item: Can you look up the measured Population Hoechst High Intensity Objects (%) of O=C(Nc1ccc(Cl)cc1)Nc1cccc(-c2cccc(N3CCCC3)n2)c1 for me?
Marked response: 5

Exam item: Quick one: Population Hoechst High Intensity Objects (%) of CCc1cccc(CC)c1NC(=O)c1nn(C)c2c1CCc1cnc(Nc3ccc(C(=O)NC4CCN(C)CC4)cc3OC(F)(F)F)nc1-2 ?
Marked response: 4

Exam item: Given the compound CCCS(=O)(=O)c1nc(NC2CC2)cc(-c2ccc3c(ccn3C3CC(C)(C)NC(C)(C)C3)c2)n1 , what is its reported Population Hoechst High Intensity Objects (%)?
Marked response: 8

Exam item: Recorded Population Hoechst High Intensity Objects (%) for CCOc1cc(C(=O)N2CCC(N3CCN(C)CC3)CC2)ccc1Nc1ncc2c(n1)N(C1CCCC1)c1ccccc1C(=O)N2C , please?
Marked response: 5

Exam item: Entry under review: CN1C2CCC1CC(OC(c1ccc(F)cc1)c1ccc(F)cc1)C2.Cl (stereo not drawn) . Reported Population Hoechst High Intensity Objects (%)?
Marked response: 2
